experiment: Biodistribution and in vivo binding specificity in PC-3 tumor-bearing BALB/c nu/nu mice; conditions: male, BALB/c nu/nu, mouse, blood, iv, total radioactivity, male BALB/c nu/nu mice with PC-3 xenografts, 45 pmol i.v., blocked (co-injected 20 nmol non-labeled peptide), 1 h p.i.; read-out: Blood uptake
measuredAttribute: tissue uptake at 1 h

Dear colleague, please send me the reported tissue uptake at 1 h for CC(C)C[C@H](NC(=O)C[C@H](O)[C@H](CC(C)C)NC(=O)[C@H](Cc1c[nH]cn1)NC(=O)CNC(=O)[C@@H](NC(=O)[C@H](C)NC(=O)[C@H](Cc1c[nH]c2ccccc12)NC(=O)[C@H](CCC(N)=O)NC(=O)[C@@H](Cc1ccccc1)NC(=O)COCCOCCNC(=O)CN1CCN(CC(=O)O)CCN(CC(=O)O)CC1)C(C)C)C(N)=O [[^18F]AlF-NOTA-P2-RM26] when you can.
0.4 %ID/g
